Source: PubChem BioAssay AID1159580

Assay: chemical genetic growth profiling, strain panel (AID 1159580);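 also: tested at 20 µM; growth read once vehicle control cultures reached saturation at 30 °C; 1 = growth at the plate median or of vehicle wells; lower values mean less growth of the strain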
Details: S. cerevisiae deletion strains, growth OD, locus YIL073C, strain SPO22
About 2,000 (36%) of roughly 5,500 compounds were called active. Another 18% or so got no clear call; they are omitted. Rule as the data show it: active = normalized growth mostly below about 0.91 (no sharp cut-off); inconclusive = no clear call, values can overlap the other calls; inactive = mostly above about 0.92. Some of the results follow.
Possible outcomes: active, inactive

{"columns": ["compound", "qualitative label"],
 "data": [
  ["O=c1[nH]c2cc(Cl)c(Cl)cc2[nH]c1=O", "inactive"],
  ["C=CCCCCCCCCCCCC(O)CC(O)CO (centres undefined) (tested in a mixture with another compound)", "active"],
  ["CN1CCOC(c2ccccc2)c2ccccc2C1 (centres undefined)", "inactive"],
  ["CC(=O)O[C@H]1C[C@H](O[C@H]2[C@@H](O)C[C@H](O[C@H]3[C@@H](O)C[C@H](O[C@H]4CC[C@@]5(C)C(CCC6C5C[C@@H](O)[C@]5(C)[C@@H](C7=CC(=O)OC7)CC[C@]65O)C4)O[C@@H]3C)O[C@@H]2C)O[C@H](C)[C@H]1O[C@@H]1O[C@H](CO)[C@@H](O)[C@H](O)[C@H]1O (some centres undefined)", "inactive"],
  ["CC1(C)O[C@@H]2CC3C4C[C@H](F)C5=CC(=O)C=CC5(C)C4C(O)CC3(C)[C@]2(C(=O)CO)O1 (some centres undefined)", "inactive"],
  ["CSc1ccc2c(c1)C(N1CCN(C)CC1)Cc1ccccc1S2 (centres undefined)", "active"],
  ["Cc1cc(=O)c2c(o1)-c1c(cc(O)c(O)c1C(=O)O)OC2", "inactive"],
  ["C[C@@H]1CC[C@@]2(OC1)OC1C(O)C3C4CC[C@H]5C[C@H](O[C@@H]6O[C@H](CO)[C@H](O[C@@H]7O[C@H](CO)[C@@H](O)[C@H](O[C@@H]8OC[C@@H](O)[C@H](O)[C@H]8O)[C@H]7O[C@@H]7O[C@H](CO)[C@H](O)[C@H](O[C@@H]8O[C@H](CO)[C@@H](O)[C@H](O)[C@H]8O)[C@H]7O)[C@H](O)[C@H]6O)[C@H](O)C[C@]5(C)C4CC[C@]3(C)C1[C@@H]2C (some centres undefined)", "active"],
  ["CN1CCN2c3ccccc3Cc3ccccc3C2C1 (centres undefined)", "inactive"]
]}

====

# normalized growth per entry
Test: chemical genetic growth profiling, strain panel (AID 1159580)
Details: S. cerevisiae deletion strains, growth OD, locus YBR023C, strain chs3, active compounds read low
About 2,000 (36%) of roughly 5,500 compounds were called active. About 18% were inconclusive and are not listed. The list shows a part of the results.

{"columns": ["compound", "normalized growth"],
 "data": [
  ["O=c1cc(-c2ccc(O)cc2)oc2ccc(O)cc12", 0.987],
  ["C=CCc1ccccc1OCC(O)CNC(C)C (stereo not drawn)", 1],
  ["CC1(C)O[C@@H]2CC3C4CCC5=CC(=O)C=C[C@]5(C)[C@@]4(F)[C@@H](O)C[C@]3(C)[C@]2(C(=O)CO)O1 (stereo partly drawn)", 0.993]
]}

====

Test: chemical genetic growth profiling, strain panel (AID 1159580)
Conditions: S. cerevisiae deletion strains, growth OD, locus YGR229C, strain SMI1, active compounds read low
The campaign covered roughly 5,500 compounds. About 2,000 (36%) were called active. Not shown: some 18% with an inconclusive outcome. The list shows a part of the results.
// assign true if normalized growth falls strictly below 1, else false (ties count as false)

{"columns": ["compound", "qualitative label"],
 "data": [
  ["Cc1cc2cc3c(C)cc(=O)oc3c(C)c2o1", "true"],
  ["CC(=O)O.CC(=O)O.[Cd]", "true"],
  ["O=C(O)c1nc2cc(Cl)c(Cl)cc2[nH]c1=O", "false"],
  ["CCCCCC[C@@H]([C@@H](C)O)n1cnc2c(N)ncnc21", "true"],
  ["C#CCOS(=O)OC1CCCCC1Oc1ccc(C(C)(C)C)cc1 (configuration not stated)", "false"],
  ["O=C(c1cc(O)c(O)c([N+](=O)[O-])c1)c1ccccc1F", "true"]
]}

====

Experiment: chemical genetic growth profiling, strain panel (AID 1159580);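 also: tested at 20 µM; growth read once vehicle control cultures reached saturation at 30 °C; 1 = growth at the plate median or of vehicle wells; lower values mean less growth of the strain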
Details: S. cerevisiae deletion strains, growth OD, locus YPL055C, strain LGE1, active compounds read low
The whole screen tested about 5,500 compounds, of which about 2,000 (36%) were called active. Inconclusive results (about 18%) are left out. The list shows a part of the results.

{"columns": ["smiles record", "normalized growth"],
 "data": [
  ["CC(C)(C)OC(=O)NC1CCN(C(=O)c2ccc(Cl)cc2Cl)CC1", "1.08 (inactive)"],
  ["Cc1onc(-c2c(Cl)cccc2Cl)c1C(=O)N1CCN(c2ncccc2C(F)(F)F)CC1", "1.06 (inactive)"],
  ["CC(C)[C@]12O[C@H]1[C@@H]1O[C@@]13[C@@]1(C)CCC4=C(COC4=O)[C@@H]1C[C@@H]1O[C@@]13C2=O", "1.06 (inactive)"]
]}

====

Assay: chemical genetic growth profiling, strain panel (AID 1159580);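 also: tested at 20 µM; growth read once vehicle control cultures reached saturation at 30 °C; 1 = growth at the plate median or of vehicle wells; lower values mean less growth of the strain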
Settings: S. cerevisiae deletion strains, growth OD, locus YMR307W, strain GAS1, active compounds read low
Out of some 5,500 compounds screened, about 2,000 (36%) were called active. Not shown: some 18% with an inconclusive outcome. The list shows a part of the results.

{"columns": ["compound", "normalized growth"],
 "data": [
  ["CCN(CCCCOC(=O)c1ccc(OC)c(OC)c1)C(C)Cc1ccc(OC)cc1 (centres undefined)", 1.01],
  ["COC(=O)C[C@H]1C(C)(C)C(=O)[C@@H]2CC3=C4CC(OC)O[C@@H](c5ccoc5)[C@]4(C)CCC3[C@@]1(C)C2=O (some centres undefined)", 1.03],
  ["COc1cccc2c1cc([N+](=O)[O-])c1c(C(=O)O)cc3c(c12)OCO3", 0.988],
  ["CC(C)[C@]12O[C@H]1[C@@H]1O[C@@]13[C@@]1(C)CCC4=C(COC4=O)[C@@H]1C[C@@H]1O[C@@]13C2=O", 1.04],
  ["N#CC(C#N)=Cc1ccc([N+](=O)[O-])c(O)c1", 1.01],
  ["COC(=O)N1CCN(C(=O)Cc2ccc(Cl)c(Cl)c2)C(CN2CCCC2)C1 (centres undefined)", 1],
  ["CC(C)(C)OC(=O)NC1CCN(C(=O)c2ccc(Cl)cc2Cl)CC1", 0.824],
  ["NC(=O)CC[C@@H](N)C(=O)O", 1.13],
  ["COC(=O)C1=C(Nc2ccc(Cl)cc2)CSC1", 0.417],
  ["CCN1CN=C(SCc2ccc(C)cc2)NC1", 1.05],
  ["CN(N=O)C(=O)N[C@@H]1[C@@H](O)[C@H](O)[C@@H](CO)O[C@@H]1O", 1.04],
  ["CC(C)c1ccc2c(c1O)CC[C@H]1C3=C(CC[C@]21C)C(=O)OC3", 0.474],
  ["CC(=O)O[C@H]1C[C@H](O[C@H]2[C@@H](O)C[C@H](O[C@H]3[C@@H](O)C[C@H](O[C@H]4CC[C@@]5(C)C(CCC6C5C[C@@H](O)[C@]5(C)[C@@H](C7=CC(=O)OC7)CC[C@]65O)C4)O[C@@H]3C)O[C@@H]2C)O[C@H](C)[C@H]1O[C@@H]1O[C@H](CO)[C@@H](O)[C@H](O)[C@H]1O (some centres undefined)", 1.07],
  ["CC(C)(Oc1ccc(Cl)cc1)C(=O)O", 1.09]
]}

====

Assay: chemical genetic growth profiling, strain panel (AID 1159580);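 also: tested at 20 µM; growth read once vehicle control cultures reached saturation at 30 °C; 1 = growth at the plate median or of vehicle wells; lower values mean less growth of the strain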
Conditions: S. cerevisiae deletion strains, growth OD, locus YJL128C, strain PBS2, active compounds read low
Among all 5,500 compounds or so, about 2,000 (36%) were called active. Another 18% or so got no clear call; they are omitted. This is one part of the list.

{"columns": ["compound", "normalized growth"],
 "data": [
  ["CCC(C)COC(=O)/C=C/c1ccc(N=Cc2ccc(OC)cc2)cc1 (stereo not given)", 0.921],
  ["Cc1csc2ncnc(N/N=C\\c3ccccc3Cl)c12", 0.946],
  ["C/C(=N/Nc1nc(C(C)(C)C)cs1)c1ccc(Cl)c(Cl)c1", 0.954],
  ["Clc1ccccc1N/N=C\\Cc1nnnn1-c1ccccc1", 0.951],
  ["COc1ccc(C2CC(c3ccccc3)=Nc3ccccc3S2)cc1OC (stereo not given)", 0.943],
  ["COc1cc(NC(=S)Nc2ccccc2OC(F)(F)F)cc(C(F)(F)F)c1", 0.929],
  ["CCC(C)Cn1c(Sc2ncc([N+](=O)[O-])s2)n[nH]c1=O (stereo not given)", 0.938],
  ["Fc1ccc(N/N=C\\Cc2nnnn2-c2ccccc2)c(F)c1", 0.963],
  ["CC(C)(C)c1cc2nc(C(F)(F)F)cc(NNC(=O)c3ccc(Cl)cc3)n2n1", 0.961],
  ["CC(C)(C)c1csc(NC(=O)c2ccc(Cl)cc2Cl)n1", 0.864],
  ["CC(C)(C)c1csc(NNC(=O)c2ccc(Cl)cc2)n1", 0.921],
  ["CCn1nc(C)cc1-c1nnc(Sc2ncc([N+](=O)[O-])s2)n1C", 0.94],
  ["N#CCCCCOc1ccc2c(=O)cc(-c3ccccc3)oc2c1", 0.938],
  ["N#Cc1c(Br)cnn1Cc1cc(C(F)(F)F)cc(C(F)(F)F)c1", 0.887],
  ["N=c1ccc2nc3c(Cl)c4c(c(Cl)c3oc-2c1S(=O)(=O)O)Nc1ccc(N)c(S(=O)(=O)O)c1O4", 1]
]}
